# system: PI3Kδ (Homo sapiens, UniProt O00329)
# Sequence (O00329 whole entry): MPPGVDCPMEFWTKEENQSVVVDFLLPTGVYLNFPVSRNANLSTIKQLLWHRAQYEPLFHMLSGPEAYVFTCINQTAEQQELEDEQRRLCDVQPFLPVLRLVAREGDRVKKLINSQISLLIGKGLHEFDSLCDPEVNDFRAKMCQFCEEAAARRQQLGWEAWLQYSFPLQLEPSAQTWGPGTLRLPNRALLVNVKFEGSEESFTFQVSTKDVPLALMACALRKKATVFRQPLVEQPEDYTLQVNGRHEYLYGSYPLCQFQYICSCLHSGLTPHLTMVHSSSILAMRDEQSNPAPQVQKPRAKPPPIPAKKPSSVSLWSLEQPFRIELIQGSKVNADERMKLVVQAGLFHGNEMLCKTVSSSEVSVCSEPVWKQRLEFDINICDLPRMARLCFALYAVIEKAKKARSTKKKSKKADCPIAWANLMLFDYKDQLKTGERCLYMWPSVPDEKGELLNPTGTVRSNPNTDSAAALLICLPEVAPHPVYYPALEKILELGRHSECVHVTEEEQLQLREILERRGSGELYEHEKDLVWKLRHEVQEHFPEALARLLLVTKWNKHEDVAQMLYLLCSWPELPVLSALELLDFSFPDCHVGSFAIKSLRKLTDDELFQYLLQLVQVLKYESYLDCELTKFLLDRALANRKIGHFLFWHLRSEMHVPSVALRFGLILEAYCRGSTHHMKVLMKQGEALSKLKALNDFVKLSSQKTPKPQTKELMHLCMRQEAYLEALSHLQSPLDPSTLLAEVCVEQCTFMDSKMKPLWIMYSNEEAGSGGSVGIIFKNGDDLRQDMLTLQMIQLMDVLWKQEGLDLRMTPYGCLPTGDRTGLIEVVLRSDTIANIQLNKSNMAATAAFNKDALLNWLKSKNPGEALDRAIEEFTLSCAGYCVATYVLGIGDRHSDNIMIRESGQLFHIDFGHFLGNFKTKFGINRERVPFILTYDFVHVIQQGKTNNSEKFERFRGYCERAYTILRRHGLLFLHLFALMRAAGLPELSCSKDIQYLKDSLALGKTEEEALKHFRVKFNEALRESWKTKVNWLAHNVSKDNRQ
# Sequence (P27986 whole entry partner): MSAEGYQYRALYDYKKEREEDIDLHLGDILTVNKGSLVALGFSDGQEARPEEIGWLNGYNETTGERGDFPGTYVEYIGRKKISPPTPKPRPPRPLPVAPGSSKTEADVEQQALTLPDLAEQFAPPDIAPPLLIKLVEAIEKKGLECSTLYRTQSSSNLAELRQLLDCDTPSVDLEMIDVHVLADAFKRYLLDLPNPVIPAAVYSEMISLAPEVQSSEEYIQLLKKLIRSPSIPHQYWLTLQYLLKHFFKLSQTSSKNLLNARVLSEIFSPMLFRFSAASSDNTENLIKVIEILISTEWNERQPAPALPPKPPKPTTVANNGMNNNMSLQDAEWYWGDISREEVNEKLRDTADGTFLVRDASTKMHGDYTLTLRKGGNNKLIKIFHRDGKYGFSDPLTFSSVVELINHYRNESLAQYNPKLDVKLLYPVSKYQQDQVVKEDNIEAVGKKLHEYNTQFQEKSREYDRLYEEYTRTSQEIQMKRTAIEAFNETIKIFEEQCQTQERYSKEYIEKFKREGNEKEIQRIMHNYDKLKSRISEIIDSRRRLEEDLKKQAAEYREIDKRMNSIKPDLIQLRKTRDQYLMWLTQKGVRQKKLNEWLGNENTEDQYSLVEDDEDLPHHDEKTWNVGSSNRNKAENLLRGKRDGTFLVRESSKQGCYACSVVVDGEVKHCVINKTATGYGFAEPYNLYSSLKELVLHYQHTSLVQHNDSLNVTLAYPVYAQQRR
# protocol.description: Kinase Profiler lipid kinase IC50
# condition.notes: ATP at Km of the isoform; 10-point half-log dilution from 1000 nM
observed.property: pIC50
Friendly reminder that pIC50 comes from taking -log10 of the concentration in mol/L.

Look up pIC50: O=C(N1CCCC1)N1CCC(n2cnc3c(-n4c(C(F)F)nc5ccccc54)nc(N4CCOCC4)nc32)CC1 [X-370] 8.15
